Values from patent US20250084079A1

Recorded IC50 by entry
Biological target: Avi-KRAS G12D (1-169) GppNHp/RAF1 RBD-3xFLAG (52-151) (Homo sapiens, UniProt P01116, G12D)
Construct: 100 nM Avi-KRAS G12D (1-169) GppNHp
Sequence (P01116 1-169 isoform P01116-2 G12D): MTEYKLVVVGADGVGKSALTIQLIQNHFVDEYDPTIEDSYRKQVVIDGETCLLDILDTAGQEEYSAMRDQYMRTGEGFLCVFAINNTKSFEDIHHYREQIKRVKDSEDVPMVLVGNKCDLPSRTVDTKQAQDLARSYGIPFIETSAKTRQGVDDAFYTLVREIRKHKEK
Assay: RAS-effector PPI HTRF disruption assay, Raf1-GppNHp-KRAS G12D

{"columns": ["compound", "IC50"],
 "data": [
  ["N#Cc1c(N)sc2c(F)ccc(-c3c(F)cc4c(O[C@@H]5CCNC5)nc(OC[C@@]56CCCN5C[C@H](F)C6)nc4c3F)c12", "> 10000 nM"],
  ["Nc1nc2c(-c3cc4nc(OC[C@@]56CCCN5C[C@H](F)C6)nc(O[C@H]5CNC[C@@H]5F)c4cc3C(F)(F)F)ccc(F)c2s1", "1000 to 10000 nM"],
  ["N#Cc1c(N)sc2c(F)ccc(-c3c(C(F)(F)F)cc4c(O[C@@H]5CCN[C@@H]5CO)nc(OC[C@@]56CCCN5C[C@H](F)C6)nc4c3F)c12", "100 to 1000 nM"]
]}

As a next step, examine the compound that follows.
Query: Item under review: C[C@@H]1C[C@H](Oc2nc(OC[C@@]34CCCN3C[C@H](F)C4)nc3c(F)c(-c4ccc(F)c5sc(N)c(C#N)c45)c(Cl)cc23)CN1 (atropisomer, axis not shown) [Compound 60] . Reported IC50?
Result: 100 to 1000 nM
